Target: T1, human BACE1 ECD
T1 construct: analyte of the Octet assay (200 nM) and enzyme of the first short substrate assay; also called human BACE1 extracellular domain
T1 sequence (single chain, as listed by the source limits assumed): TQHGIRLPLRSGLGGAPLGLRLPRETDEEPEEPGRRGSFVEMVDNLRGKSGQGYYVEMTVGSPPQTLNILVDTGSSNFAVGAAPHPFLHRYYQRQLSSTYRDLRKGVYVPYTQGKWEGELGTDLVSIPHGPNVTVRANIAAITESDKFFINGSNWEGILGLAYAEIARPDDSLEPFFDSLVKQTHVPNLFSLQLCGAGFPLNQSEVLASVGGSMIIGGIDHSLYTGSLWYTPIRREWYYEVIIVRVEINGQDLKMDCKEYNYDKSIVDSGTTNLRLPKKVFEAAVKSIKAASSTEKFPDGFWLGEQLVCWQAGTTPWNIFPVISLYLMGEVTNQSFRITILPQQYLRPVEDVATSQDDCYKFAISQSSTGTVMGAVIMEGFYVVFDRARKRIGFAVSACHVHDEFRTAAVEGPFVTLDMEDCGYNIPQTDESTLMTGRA
Assay: Octet, pH 7.5;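 note: antibodies captured on anti-human capture biosensor tips, dissociation followed in PBS with BSA buffer, kinetics fitted with a one-to-one binding model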
pKd: −log10 of the molar value.
Assign Criterion met whenever pKd does not fall below 9; assign Criterion not met whenever it does.

Task: Is pKd at least 9? Consider 5896 (antibody, V domains shown, anti-BACE1 IgG) VH: QLQLQESGPGLVKPSETLSLTCTVSGGSISSSSYYWGWIRQPPGKGLEWIGSIYRSGSTYYNPSLKSRVTISVDTSKNQFSLKLSSVTAADTAVYYCARVGHGISYFDLWGRGTLVTVSS VL: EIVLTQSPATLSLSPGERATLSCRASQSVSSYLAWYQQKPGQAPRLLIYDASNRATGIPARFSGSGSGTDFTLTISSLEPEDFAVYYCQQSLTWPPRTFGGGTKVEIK
Result: Criterion not met
